target: Adenosine receptor A2a (Rattus norvegicus, UniProt P30543); experiment: Antagonist activity at recombinant rat A2A adenosine receptor expressed in CHO cells after 3 to 4 hrs by luciferase reporter gene assay
Sequence (P30543 whole entry): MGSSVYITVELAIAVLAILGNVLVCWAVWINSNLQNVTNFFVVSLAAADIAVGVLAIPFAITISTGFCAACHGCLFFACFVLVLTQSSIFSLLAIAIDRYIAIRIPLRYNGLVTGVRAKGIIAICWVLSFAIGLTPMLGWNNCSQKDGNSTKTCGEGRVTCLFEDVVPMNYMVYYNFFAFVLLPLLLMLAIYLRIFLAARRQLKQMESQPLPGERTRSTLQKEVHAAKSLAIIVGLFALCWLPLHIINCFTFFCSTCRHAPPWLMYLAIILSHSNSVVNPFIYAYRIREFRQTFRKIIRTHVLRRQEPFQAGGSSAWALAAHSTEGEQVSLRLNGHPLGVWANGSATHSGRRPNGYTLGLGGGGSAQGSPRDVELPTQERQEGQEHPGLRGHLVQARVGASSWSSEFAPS
Observation type: pIC50
One number for each entry, as −log10 of the molar value.

Known value: Adenosine receptor A2a (Rattus norvegicus, UniProt P30543) pIC50 of the molecule CCn1c(=O)c2c(C)c(C(=O)N3CCC(O)CC3)sc2n(CCC(F)(F)F)c1=O equals 6.12

* * *

experiment: Half life in dog at 1 mg/kg, po for 15 mins by HPLC-MS/MS analysis; format: ADME, organism-based, Canis lupus familiaris; details: in vivo
Observation type: half-life (h)
One number for each entry, in h.

Looking up CCn1c(=O)c2c(C)c(C(=O)N3CCC(O)CC3)sc2n(CCC(F)(F)F)c1=O , I see its half-life listed as 5.1

Values from ChEMBL document CHEMBL4422615
